- System under test: biotinylated HRP (Armoracia rusticana, UniProt P00433)
- Construct: purchased Roche Diagnostics, Indianapolis, Ind., USA
- Sequence (P00433 31-338 limits assumed): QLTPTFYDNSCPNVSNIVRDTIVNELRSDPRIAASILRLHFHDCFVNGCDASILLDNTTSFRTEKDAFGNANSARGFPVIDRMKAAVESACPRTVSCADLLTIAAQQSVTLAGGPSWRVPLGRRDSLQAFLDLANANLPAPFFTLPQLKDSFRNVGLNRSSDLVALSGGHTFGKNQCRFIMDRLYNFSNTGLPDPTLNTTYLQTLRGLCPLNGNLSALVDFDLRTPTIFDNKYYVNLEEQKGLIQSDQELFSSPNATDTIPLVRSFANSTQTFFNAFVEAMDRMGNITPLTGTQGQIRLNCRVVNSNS
- Test details: Model system for selection of SSIA (M280 btn-BSA-AK1-streptavidin particles + Btn-HRP:HRP)
- Assay type: biochemical
- Experimental conditions: Btn-HRP 0 ng/mL, total HRP 500 ng/mL; SSIA final 100 μM
Value kind: B-HRP0 light intensity
Lab note: jot down the number only; don't add units.

Answer with the recorded B-HRP0 light intensity of Nc1ccc(C(=O)O)cc1O [4-Amino-3-hydroxybenzoic acid, 4-amino-3-hydroxybenzoic acid] only.
972

Answer with the recorded B-HRP0 light intensity of `Oc1ccc(Cl)cc1O` only.
93

###

- System under test: biotinylated HRP (Armoracia rusticana, UniProt P00433)
- Construct: purchased Roche Diagnostics, Indianapolis, Ind., USA
- Test details: Model system for selection of SSIA (M280 btn-BSA-AK1-streptavidin particles + Btn-HRP:HRP)
- Format: biochemical
- Experimental conditions: Btn-HRP 1 ng/mL, total HRP 500 ng/mL; SSIA final 100 μM
Value kind: B-HRP1 light intensity

Answer with the recorded B-HRP1 light intensity of Oc1ccc(O)c(Cl)c1 [2-chloro-1,4-dihydroxybenzene] only.
4,007

Answer with the recorded B-HRP1 light intensity of Nc1ccc(C(=O)O)cc1O [4-Amino-3-hydroxybenzoic acid, 4-amino-3-hydroxybenzoic acid] only.
2,808

Answer with the recorded B-HRP1 light intensity of `COc1ccc2[nH]cc(CCNC(C)=O)c2c1` only.
70,741

Answer with the recorded B-HRP1 light intensity of CCCCCCCCCCCCCCCC(=O)OC[C@H](O)[C@H]1OC(=O)C(O)=C1O [Ascorbic Acid 6-palmitate, L-Ascorbic acid 6-Palmitate] only.
327

Answer with the recorded B-HRP1 light intensity of Cc1c(C)c2c(c(C)c1O)CC[C@@](C)(CCC[C@H](C)CCC[C@H](C)CCCC(C)C)O2 (racemic) [(+/−)-alpha-Tocopherol, (±)-a-Tocopherol] only.
6,468

Answer with the recorded B-HRP1 light intensity of `CC(=O)N[C@@H](CS)C(=O)O` only.
47,636

Answer with the recorded B-HRP1 light intensity of O=C(O)CCCC[C@@H]1CCSS1 (racemic) only.
71,751

Answer with the recorded B-HRP1 light intensity of `N[C@@H](CS)C(=O)O` only.
58,203

Answer with the recorded B-HRP1 light intensity of `N[C@@H](CCC(=O)N[C@@H](CS)C(=O)NCC(=O)O)C(=O)O` only.
55,719

Answer with the recorded B-HRP1 light intensity of `CC1(C)OC[C@@H]([C@H]2OC(=O)C(O)=C2O)O1` only.
961

Answer with the recorded B-HRP1 light intensity of `COc1cc(/C=C/C(=O)O)ccc1O` only.
12,079

###

Provide the reported B-HRP100 light intensity of each item.
- System under test: biotinylated HRP (Armoracia rusticana, UniProt P00433)
- Construct: purchased Roche Diagnostics, Indianapolis, Ind., USA
- Test details: Model system for selection of SSIA (M280 btn-BSA-AK1-streptavidin particles + Btn-HRP:HRP)
- Type: biochemical
- Experimental conditions: Btn-HRP 100 ng/mL, total HRP 500 ng/mL; SSIA final 100 μM

Answer with the recorded B-HRP100 light intensity of `COc1ccc2[nH]cc(CCNC(C)=O)c2c1` only.
9,471,431

Answer with the recorded B-HRP100 light intensity of `Nc1ccccc1O` only.
2,092,703

Answer with the recorded B-HRP100 light intensity of Cc1c(O)cc2c(c1C)O[C@](C)(CCC[C@H](C)CCC[C@H](C)CCCC(C)C)CC2 [(+)-gamma-Tocopherol, (+)-y-Tocopherol] only.
8,698,069

Answer with the recorded B-HRP100 light intensity of Cc1c(C)c2c(c(C)c1O)CC[C@@](C)(CCC[C@H](C)CCC[C@H](C)CCCC(C)C)O2 (racemic) [(+/−)-alpha-Tocopherol, (±)-a-Tocopherol] only.
8,560,469

Answer with the recorded B-HRP100 light intensity of Cl.Nc1ccc(O)cc1O [4-aminoresorcinol HCl, 4-aminoresorcinol hydrochloride] only.
330,056

Answer with the recorded B-HRP100 light intensity of `N[C@@H](CS)C(=O)O` only.
9,147,371

Answer with the recorded B-HRP100 light intensity of `CC(=O)N[C@@H](CS)C(=O)O` only.
8,685,795

Answer with the recorded B-HRP100 light intensity of `Oc1ccc(Cl)cc1O` only.
456,707

Answer with the recorded B-HRP100 light intensity of `N[C@@H](CCC(=O)N[C@@H](CS)C(=O)NCC(=O)O)C(=O)O` only.
8,733,068

Answer with the recorded B-HRP100 light intensity of `Oc1ccc(C=Cc2cc(O)cc(O)c2)cc1` only.
5,944,792

Answer with the recorded B-HRP100 light intensity of `COc1cc(C(=O)O)cc(OC)c1O` only.
7,927,096

Answer with the recorded B-HRP100 light intensity of Oc1ccc(O)c(Cl)c1 [2-chloro-1,4-dihydroxybenzene] only.
610,053

Answer with the recorded B-HRP100 light intensity of Cc1c(C)c2c(c(C)c1O)CCC(C)(C(=O)O)O2 (stereo not shown) only.
7,251,008

Answer with the recorded B-HRP100 light intensity of CCCCCCCCCCCCCCCC(=O)OC[C@H](O)[C@H]1OC(=O)C(O)=C1O [Ascorbic Acid 6-palmitate, L-Ascorbic acid 6-Palmitate] only.
8,187,204

Answer with the recorded B-HRP100 light intensity of `COc1cc(/C=C/C(=O)O)ccc1O` only.
8,785,865

Answer with the recorded B-HRP100 light intensity of Nc1ccc(C(=O)O)cc1O [4-Amino-3-hydroxybenzoic acid, 4-amino-3-hydroxybenzoic acid] only.
5,906,521

###

Provide the reported B-HRP1 light intensity of each item.
- System under test: biotinylated HRP (Armoracia rusticana, UniProt P00433)
- Construct: purchased Roche Diagnostics, Indianapolis, Ind., USA
- Test details: Model system for selection of SSIA (M280 btn-BSA-AK1-streptavidin particles + Btn-HRP:HRP)
- Format: biochemical
- Experimental conditions: Btn-HRP 1 ng/mL, total HRP 500 ng/mL; SSIA final 100 μM

Answer with the recorded B-HRP1 light intensity of `CC1(C)CC(O)CC(C)(C)N1[O]` only.
33,873

Answer with the recorded B-HRP1 light intensity of `Oc1ccc(Cl)cc1O` only.
205

Answer with the recorded B-HRP1 light intensity of NNC(=O)c1cccnc1 [Nicotinic Hydrazide] only.
58,356

Answer with the recorded B-HRP1 light intensity of `COc1cc(C(=O)O)cc(OC)c1O` only.
23,707

Answer with the recorded B-HRP1 light intensity of `Nc1ccccc1O` only.
356

Answer with the recorded B-HRP1 light intensity of `O=c1[nH]c(=O)c2[nH]c(=O)[nH]c2[nH]1` only.
9,760

Answer with the recorded B-HRP1 light intensity of Cl.Nc1ccc(O)cc1O [4-aminoresorcinol HCl, 4-aminoresorcinol hydrochloride] only.
1,163

Answer with the recorded B-HRP1 light intensity of Cc1c(O)cc2c(c1C)O[C@](C)(CCC[C@H](C)CCC[C@H](C)CCCC(C)C)CC2 [(+)-gamma-Tocopherol, (+)-y-Tocopherol] only.
10,924

Answer with the recorded B-HRP1 light intensity of Cc1c(C)c2c(c(C)c1O)CCC(C)(C(=O)O)O2 (stereo not shown) only.
1,460

Answer with the recorded B-HRP1 light intensity of `Oc1ccc(C=Cc2cc(O)cc(O)c2)cc1` only.
81,452

###

- System under test: biotinylated HRP (Armoracia rusticana)
- Construct: purchased Roche Diagnostics, Indianapolis, Ind., USA
- Test details: Model system for selection of SSIA (M280 btn-BSA-AK1-streptavidin particles + Btn-HRP:HRP)
- Format: biochemical
- Experimental conditions: Btn-HRP 10 ng/mL, total HRP 500 ng/mL; SSIA final 100 μM
Value kind: B-HRP10 light intensity

Answer with the recorded B-HRP10 light intensity of `CC1(C)CC(O)CC(C)(C)N1[O]` only.
1,963,369

Answer with the recorded B-HRP10 light intensity of `COc1ccc2[nH]cc(CCNC(C)=O)c2c1` only.
2,381,361

Answer with the recorded B-HRP10 light intensity of Cl.Nc1ccc(O)cc1O [4-aminoresorcinol HCl, 4-aminoresorcinol hydrochloride] only.
74,764

Answer with the recorded B-HRP10 light intensity of `O=c1[nH]c(=O)c2[nH]c(=O)[nH]c2[nH]1` only.
1,025,209

Answer with the recorded B-HRP10 light intensity of CCCCCCCCCCCCCCCC(=O)OC[C@H](O)[C@H]1OC(=O)C(O)=C1O [Ascorbic Acid 6-palmitate, L-Ascorbic acid 6-Palmitate] only.
40,863

Answer with the recorded B-HRP10 light intensity of `CC1(C)OC[C@@H]([C@H]2OC(=O)C(O)=C2O)O1` only.
29,645
